Provenance of the data: ChEMBL document CHEMBL1157504

# PROCEDURE_TEXT: Solubility in water at pH 7.8
# Format: physicochemical
OBSERVABLE: solubility (µg/mL)

1) CCCN1CCC(c2nc3cccc(C(N)=O)c3[nH]2)CC1 :: 6000

---

# SYSTEM_NAME: Poly [ADP-ribose] polymerase 1 (Homo sapiens, UniProt P09874)
# Sequence (P09874 whole entry): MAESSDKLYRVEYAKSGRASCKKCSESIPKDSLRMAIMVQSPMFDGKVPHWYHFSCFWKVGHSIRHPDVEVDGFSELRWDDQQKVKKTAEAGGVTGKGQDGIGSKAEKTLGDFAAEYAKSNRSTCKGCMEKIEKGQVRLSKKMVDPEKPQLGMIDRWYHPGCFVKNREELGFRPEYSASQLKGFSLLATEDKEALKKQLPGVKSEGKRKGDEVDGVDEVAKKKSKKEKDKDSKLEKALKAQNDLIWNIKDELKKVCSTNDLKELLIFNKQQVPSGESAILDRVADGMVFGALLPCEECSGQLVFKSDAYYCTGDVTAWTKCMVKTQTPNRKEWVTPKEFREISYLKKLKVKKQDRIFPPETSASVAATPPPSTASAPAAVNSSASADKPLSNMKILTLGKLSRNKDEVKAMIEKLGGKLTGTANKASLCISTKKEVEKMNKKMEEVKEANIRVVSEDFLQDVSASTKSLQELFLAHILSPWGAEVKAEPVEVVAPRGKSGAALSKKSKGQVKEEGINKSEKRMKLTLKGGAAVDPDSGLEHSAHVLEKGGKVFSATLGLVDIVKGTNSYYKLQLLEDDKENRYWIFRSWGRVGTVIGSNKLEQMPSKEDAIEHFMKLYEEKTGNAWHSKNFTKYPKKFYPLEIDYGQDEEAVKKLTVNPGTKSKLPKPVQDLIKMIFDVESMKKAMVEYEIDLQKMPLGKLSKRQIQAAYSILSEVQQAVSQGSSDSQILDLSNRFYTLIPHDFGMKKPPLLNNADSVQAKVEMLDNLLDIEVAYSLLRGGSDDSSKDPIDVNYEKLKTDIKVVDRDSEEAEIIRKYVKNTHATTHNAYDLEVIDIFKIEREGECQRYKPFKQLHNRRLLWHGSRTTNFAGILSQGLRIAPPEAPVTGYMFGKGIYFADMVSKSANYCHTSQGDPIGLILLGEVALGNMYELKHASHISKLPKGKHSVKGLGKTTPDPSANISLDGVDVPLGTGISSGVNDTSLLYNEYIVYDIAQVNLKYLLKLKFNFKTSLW
pEC50: −log10 of the molar value.
Listing of recorded pEC50 by entry.
OBSERVABLE: pEC50

1) NC(=O)c1cccc2[nH]c(C3CCN3)nc12 (configuration not stated) :: 6.70
2) CN1CCCC(c2nc3c(C(N)=O)cccc3[nH]2)C1 (configuration not stated) :: 7.82
3) CN1CCC(c2nc3cccc(C(N)=O)c3[nH]2)CC1 :: 8.05
4) CCN(CC)CCN1CCC(c2nc3cccc(C(N)=O)c3[nH]2)CC1 :: 7.03
5) N#Cc1ccc(N2CCC(c3nc4c(C(N)=O)cccc4[nH]3)CC2)cc1 :: 7.68
6) CN1CCN(C)C(c2nc3cccc(C(N)=O)c3[nH]2)C1 (configuration not stated) :: 7.01
7) CN1CCCCC1c1nc2c(C(N)=O)cccc2[nH]1 (configuration not stated) :: 7.52
8) CCCN1CCC(c2nc3c(C(N)=O)cccc3n2C)CC1 :: 7.68
9) CC(C)N1CCCC(c2nc3cccc(C(N)=O)c3[nH]2)CC1 (configuration not stated) :: 8.22
10) NC(=O)c1cccc2[nH]c(C3CCN(C4CCCC4)CC3)nc12 :: 8.30
11) CC(C)N1CCC(c2nc3c(C(N)=O)cccc3[nH]2)CC1 :: 8.40
12) CCCN1CC(c2nc3c(C(N)=O)cccc3[nH]2)C1 :: 7.80

---

# PROCEDURE_TEXT: Cmax in monkey at 4.1 mg/kg, po
# Format: ADME, organism-based, Macaca mulatta
# Parameters: dose 4.1 mg/kg, route oral
# TEST_CONDITIONS: rhesus monkey, in vivo
OBSERVABLE: Cmax

1) CCCN1CCC(c2nc3cccc(C(N)=O)c3[nH]2)CC1 :: 200 ng/mL

---

# PROCEDURE_TEXT: Clearance in monkey at 4.1 mg/kg
# Format: ADME, organism-based, Macaca mulatta
# Set-up: dose 4.1 mg/kg
# TEST_CONDITIONS: rhesus monkey, in vivo
OBSERVABLE: clearance (mL/min/kg)

1. CCCN1CCC(c2nc3cccc(C(N)=O)c3[nH]2)CC1 :: 33.3

---

# PROCEDURE_TEXT: Half life in CD1 mouse at 3 mg/kg, iv
# Type: ADME, organism-based
# Set-up: dose 3 mg/kg, route intravenous
# TEST_CONDITIONS: in vivo
Listing of recorded half-life by entry.
OBSERVABLE: half-life

1. CC(C)N1CCC(c2nc3c(C(N)=O)cc(Cl)cc3[nH]2)CC1 :: 1.4 h
2. CCCN1CCC(c2nc3cccc(C(N)=O)c3[nH]2)CC1 :: 1.2 h
3. NC(=O)c1cccc2[nH]c(C3CCCNC3)nc12 (configuration not stated) :: 2 h
4. CN1CCC[C@@H]1c1nc2c(C(N)=O)cccc2[nH]1 :: 0.1 h
5. CC(C)N1CCCC(c2nc3cccc(C(N)=O)c3[nH]2)C1 (configuration not stated) :: 0.4 h
6. NC(=O)c1cccc2[nH]c(C3CCN(CCc4ccccc4)C3)nc12 (configuration not stated) :: 0.8 h
7. NC(=O)c1cccc2[nH]c([C@H]3CCCN3)nc12 :: 1.2 h
